molecular target: pooled human IgG (human IgG1, 2, 3 and 4)
The reader will find reported Enzyme Activity Endpoint Assay: IgG values listed item by item below.
PROPERTY: Enzyme Activity Endpoint Assay: IgG (ng/µL)

1) PRT-486 (protein) MVTSVWTKGVTPPTDFIKGEDVFHAPYKAGQGWYDITKTFNGKDNLLCGAATAGNMLHWWFDQNKDQIERYLKEHPEKQKIIFNNQELFDLKAAIDTKDSQTDSKLFEYFKEKAFPYLSTKHLGVFPDHVLDMFINGYRLSLTNHGPTPVKEGSKDKRGGIFDAVFTRGVQSKLLTSRHDFKEKTLKEISDLIKQELTEGKALGLSHTYANVRINHVINLWGADFDSEGNLKAIYVTDSDTNASIGMKKYFVGVNSAGKVAISAKEIKEDNIGAQVLGLFTLSTGQDIWNQTNLEHHHHHH    107
2) PRT-255 (protein) MVTSVWTKGVTPPTNFTYGEDVLHAPYVANQGWYDITKTFNGKDDLLCGAATAGNMLHWWFDQNKEQIENYLKKHPEKQKINFNGEQMFDVKEAIDTKDSQLDSKLFEYFLEKAFPNLSTKHLGVFPDHVIDMFINGYRLSLLNHGPTPVKRGSKDPRGGIFDAVFTRGDQSKLLTNRHDFKEKTLKEISDLIKQELTEGKALGISHTYANVGINHVINLWGADFDAEGNLEAIAVTDSDSNASIGMKKYFVGVNSSGKVAISAKEIEEDNIGAQVLGLFTLSTGQDIWNQTN    75
